protocol.description: Solubility of the compound
Type: physicochemical

>  <record.smiles>
COc1cc(NC(=O)c2ccc(-c3ccccc3)cc2)ccc1OCCN(C(C)C)C(C)C

>  <solubility (µg/mL)>
4

$$$$

====

# reported Kp; entries follow
protocol.description: Ratio of drug level in brain against blood in rat 0.3 mg/kg/hr, iv
Format: ADME, organism-based
Parameters: route intravenous
particulars: read-out: BBR
value.kind: Kp

>  <record.smiles>
CCN(CC)CCOc1ccc(N(C)C(=O)c2ccc(-c3ccc(C(F)(F)F)cc3)cc2)cc1OC

>  <reported>
1

$$$$
>  <record.smiles>
COc1cc(N(C)C(=O)c2ccc(-c3ccccc3)cc2)ccc1OCCN1CCCC1

>  <reported>
0.1

$$$$
>  <record.smiles>
COc1cc(NC(=O)c2ccc(-c3ccccc3)cc2)ccc1OCCN(C(C)C)C(C)C

>  <reported>
2.7

$$$$
>  <record.smiles>
CCN(CC)CCOc1ccc(N(C)C(=O)c2ccc(-c3ccccc3)cc2)cc1OC

>  <reported>
0.1

$$$$

Sourced from ChEMBL document CHEMBL1149490
